Assay: Approximate solubility, solvent addition method, visual assessment
Type: physicochemical
Details: 1,4-dioxane, organic solvent or mixture, thermodynamic from solid, 1,4-dioxane; read-out: Solubility
observation_type: Solubility

// query Solubility value for entry C=CC(=O)N1CCC[C@@H](c2c(F)cc(C(N)=O)c3[nH]c4c(c23)CCCCC4)C1
> 20 mg/mL

---

Assay: Solubility testing in bio-relevant media (Form III)
Format: physicochemical
Settings: thermodynamic from solid; FaSSIF-V2, pH 6.5; 37° C.; 24 h; pH at 24 h 6.6
observation_type: solubility at 24 h (µg/mL)
Answer in µg/mL, number only, no unit symbol.

// query solubility at 24 h value for entry C=CC(=O)N1CCC[C@@H](c2c(F)cc(C(N)=O)c3[nH]c4c(c23)CCCCC4)C1 [Form III]
4

---

Assay: Approximate solubility, solvent addition method, visual assessment
Format: physicochemical
Settings: n-butanol (NBA), organic solvent or mixture, thermodynamic from solid, n-Butanol (NBA); read-out: Solubility
observation_type: Solubility

// query Solubility value for entry C=CC(=O)N1CCC[C@@H](c2c(F)cc(C(N)=O)c3[nH]c4c(c23)CCCCC4)C1
~2300 µg/mL

---

Experiment: Solubility testing in vehicle, HPLC (Form III)
Type: physicochemical
Conditions: organic solvent or mixture, thermodynamic from solid; PG; RT; 24 h; pH 5.1; loading 50 mg/mL
observation_type: solubility at 24 h (mg/mL)
Answer in mg/mL, number only, no unit symbol.

// query solubility at 24 h value for entry C=CC(=O)N1CCC[C@@H](c2c(F)cc(C(N)=O)c3[nH]c4c(c23)CCCCC4)C1 [Compound 1]
48.2

---

Test: Solubility testing in aqueous media at various pH (Form III)
Assay type: physicochemical
Settings: simulated gastric fluid, thermodynamic from solid; pH 1.0 (0.1N HCl); RT; 4 h
observation_type: solubility at 4 h (µg/mL)
Answer in µg/mL, number only, no unit symbol.

// query solubility at 4 h value for entry C=CC(=O)N1CCC[C@@H](c2c(F)cc(C(N)=O)c3[nH]c4c(c23)CCCCC4)C1 [Compound 1]
0.7

---

Assay: Phase 1 single ascending dose plasma pharmacokinetics
Assay type: in vivo, human
Conditions: both sexes, human, plasma, oral, 5 mg, Cohort 4, 5 mg (+10 PBO) single dose, fed, mean
observation_type: Cmax (ng/mL)
Answer in ng/mL, number only, no unit symbol.

// query Cmax value for entry C=CC(=O)N1CCC[C@@H](c2c(F)cc(C(N)=O)c3[nH]c4c(c23)CCCCC4)C1
36

---

Experiment: Approximate solubility, solvent addition method, visual assessment
Assay type: physicochemical
Details: tetrahydrofuran (THF), organic solvent or mixture, thermodynamic from solid, Tetrahydrofuran (THF); read-out: Solubility
Protocol: The approximate solubility of the initial solid was determined using a solvent addition method via visual assessment of samples. Values are rounded to nearest whole number and reported as “<” if dissolution was not observed, and as “>” if dissolution occurred after addition of first aliquot.
observation_type: Solubility

// query Solubility value for entry C=CC(=O)N1CCC[C@@H](c2c(F)cc(C(N)=O)c3[nH]c4c(c23)CCCCC4)C1
> 20 mg/mL

---

Test: Phase 1 single ascending dose plasma pharmacokinetics
Type: in vivo, human
Conditions: both sexes, human, plasma, oral, 5 mg, Cohort 4, 5 mg (+10 PBO) single dose, fed, mean
observation_type: AUC(0-inf) (ng·h/mL)
Answer in ng·h/mL, number only, no unit symbol.

// query AUC(0-inf) value for entry C=CC(=O)N1CCC[C@@H](c2c(F)cc(C(N)=O)c3[nH]c4c(c23)CCCCC4)C1 [Compound 1]
121

---

Experiment: Phase 1 food effect on pharmacokinetics
Assay type: in vivo, human
Conditions: human, plasma, oral, 15 mg, Cohort 11, 15 mg single dose, High-Fat, median; read-out: T1/2 (converted)
observation_type: half-life
Please format your answer as a value with the unit trailing.

// query half-life value for entry C=CC(=O)N1CCC[C@@H](c2c(F)cc(C(N)=O)c3[nH]c4c(c23)CCCCC4)C1
2.99 h

---

Assay: Solubility testing in vehicle, HPLC (Form III)
Type: physicochemical
Settings: aqueous with cosolvent or surfactant or cyclodextrin, thermodynamic from solid; Gelucire 44/14; 45° C.; 24 h; pH 5.8; loading 50 mg/mL
observation_type: solubility at 24 h

// query solubility at 24 h value for entry C=CC(=O)N1CCC[C@@H](c2c(F)cc(C(N)=O)c3[nH]c4c(c23)CCCCC4)C1
> 50 mg/mL

---

Assay: Approximate solubility, solvent addition method, visual assessment
Format: physicochemical
Conditions: ethyl acetate, organic solvent or mixture, thermodynamic from solid, Ethyl acetate; read-out: Solubility
Protocol: The approximate solubility of the initial solid was determined using a solvent addition method via visual assessment of samples. Values are rounded to nearest whole number and reported as “<” if dissolution was not observed, and as “>” if dissolution occurred after addition of first aliquot.
observation_type: Solubility

// query Solubility value for entry C=CC(=O)N1CCC[C@@H](c2c(F)cc(C(N)=O)c3[nH]c4c(c23)CCCCC4)C1
~2000 µg/mL

---

Experiment: Solubility testing in vehicle, HPLC (Form III)
Assay type: physicochemical
Details: aqueous with cosolvent or surfactant or cyclodextrin, thermodynamic from solid; 1% SLS; RT; 24 h; pH 7.1; loading 15 mg/mL
observation_type: solubility at 24 h (µg/mL)
Answer in µg/mL, number only, no unit symbol.

// query solubility at 24 h value for entry C=CC(=O)N1CCC[C@@H](c2c(F)cc(C(N)=O)c3[nH]c4c(c23)CCCCC4)C1
1200

---

Assay: Phase 1 single ascending dose plasma pharmacokinetics
Assay type: in vivo, human
Conditions: both sexes, human, plasma, po, healthy subjects; single oral dose, SAD cohorts, fed; read-out: mean plasma Tmax
observation_type: Tmax

// query Tmax value for entry C=CC(=O)N1CCC[C@@H](c2c(F)cc(C(N)=O)c3[nH]c4c(c23)CCCCC4)C1
1 to 3 h

---

Assay: Approximate solubility, solvent addition method, visual assessment
Type: physicochemical
Settings: 2-butanone (MEK), organic solvent or mixture, thermodynamic from solid, 2-Butanone (MEK); read-out: Solubility
observation_type: Solubility

// query Solubility value for entry C=CC(=O)N1CCC[C@@H](c2c(F)cc(C(N)=O)c3[nH]c4c(c23)CCCCC4)C1 [starting material]
~8.3 mg/mL

---

Experiment: Phase 1 food effect on pharmacokinetics
Format: in vivo, human
Conditions: human, plasma, oral, 15 mg, Cohort 11, 15 mg single dose, High-Fat, mean
observation_type: AUC(0-inf) (ng·h/mL)
Answer in ng·h/mL, number only, no unit symbol.

// query AUC(0-inf) value for entry C=CC(=O)N1CCC[C@@H](c2c(F)cc(C(N)=O)c3[nH]c4c(c23)CCCCC4)C1
356

---

Test: Phase 1 CSF penetrance (CSF/unbound plasma concentration)
Format: in vivo
Conditions: both sexes, human, CSF / unbound plasma, oral; healthy subjects; CSF samples at 2 hours post-dose; read-out: Mean CSF:unbound plasma concentration ratio
observation_type: Kp at 2 h

// query Kp at 2 h value for entry C=CC(=O)N1CCC[C@@H](c2c(F)cc(C(N)=O)c3[nH]c4c(c23)CCCCC4)C1
~1

---

Assay: Phase 1 single ascending dose plasma pharmacokinetics
Type: in vivo, human
Conditions: both sexes, human, plasma, oral, 200 mg, Cohort 6, 200 mg single dose, fed, mean
observation_type: AUC(0-inf)

// query AUC(0-inf) value for entry C=CC(=O)N1CCC[C@@H](c2c(F)cc(C(N)=O)c3[nH]c4c(c23)CCCCC4)C1 [Compound 1]
4480 ng·h/mL

---

Experiment: Solubility testing in vehicle, HPLC (Form III)
Assay type: physicochemical
Settings: aqueous with cosolvent or surfactant or cyclodextrin, thermodynamic from solid; 1% polox407; RT; 24 h; pH 6.7; loading 15 mg/mL
observation_type: solubility at 24 h (µg/mL)
Answer in µg/mL, number only, no unit symbol.

// query solubility at 24 h value for entry C=CC(=O)N1CCC[C@@H](c2c(F)cc(C(N)=O)c3[nH]c4c(c23)CCCCC4)C1 [Compound 1]
4

---

Assay: Approximate solubility, solvent addition method, visual assessment
Format: physicochemical
Conditions: toluene, organic solvent or mixture, thermodynamic from solid, Toluene; read-out: Solubility
observation_type: Solubility

// query Solubility value for entry C=CC(=O)N1CCC[C@@H](c2c(F)cc(C(N)=O)c3[nH]c4c(c23)CCCCC4)C1 [starting material]
~1300 µg/mL

---

Assay: Phase 1 multiple ascending dose plasma pharmacokinetics
Assay type: in vivo, human
Details: both sexes, human, plasma, oral; Cohort 7, 15 mg once daily, fed, Day 1, mean
Text: Part A is a randomized, double-blind, placebo-controlled, single- and -multiple-dose study with staggered dose escalation, administered in the fed state (standard moderate-fat meal). Part A consists of […] (up to 7 single-ascending dose [SAD] cohorts [Cohorts 1-6 & 14], and up to 3 multiple ascending dose [MAD] cohorts [Cohorts 7-9]). […]
observation_type: Cmax (ng/mL)
Answer in ng/mL, number only, no unit symbol.

// query Cmax value for entry C=CC(=O)N1CCC[C@@H](c2c(F)cc(C(N)=O)c3[nH]c4c(c23)CCCCC4)C1
85.8
